All figures here come from paper PMC6396188.

Target: IL-1β (Homo sapiens, UniProt P01584)
Assay: On-bead microplate equilibrium binding assay, IL-1β
Where no end group is shown, it is not given here.
Assay metric: Kd (µM)
Write down the numeric answer in µM and omit the unit.

Query: Fill in reported Kd for this entry: TWTETYTWTEPGDTQTLTITNTG [β-body 3]
Result: 0.61

---

Target: GFP (Aequorea victoria, UniProt P42212, F64L/H231L/S65T)
Assay: On-bead microplate equilibrium binding assay, GFP
Where no end group is shown, it is not given here.
Assay metric: Kd (nM)
Express the result in nM but write the number alone.

Query: Would you please give the reported Kd of TETKTVTITRPKMTWTFTHTVTG [β-body 1] with GFP (Aequorea victoria, UniProt P42212, F64L/H231L/S65T)?
Result: 184
